So I've got pKi readings for UniProt Q923Y9, take a look.
pKi: −log10 of the molar value.

sample_smiles	pKi
Cc1ccc(N(C)C[C@H]2COC(N)=N2)c(F)c1	8.21
CN(C[C@@H]1COC(N)=N1)c1ccc2ccccc2c1	7.81
COc1cc(N(C)C[C@@H]2COC(N)=N2)ccc1Cl	8.39
CCN(C[C@H]1COC(N)=N1)c1ccccc1Cl	7.23
CCN(C[C@H]1COC(N)=N1)c1ccc(Cl)c(OC)c1	9.22
NC1=N[C@@H](CNc2cccc(Cl)c2)CO1	8.14
NC1=N[C@@H](CNc2ccc(C(F)(F)F)c(F)c2)CO1	7.80
CCN(C[C@@H]1COC(N)=N1)c1ccc2ccccc2c1	8.28
CN(C[C@H]1COC(N)=N1)c1cc(Cl)cc(Cl)c1	9.05
CN(C[C@@H]1COC(N)=N1)c1ccc(Cl)c(Cl)c1	8.68

* * *

So I've got Ki readings for rat TAAR1 (Rattus norvegicus, UniProt Q923Y9), take a look.
parameter: Ki (nM)

compound	observed_value
NC1=N[C@@H](CNc2ccc(C(F)(F)F)cc2)CO1 [Example 132]	24.8
COc1cc(N(C)C[C@H]2COC(N)=N2)ccc1Cl [Example 27]	1.6
CCN(C[C@@H]1COC(N)=N1)c1ccc(Cl)c(OC)c1 [Example 141]	0.9

* * *

So I've got Ki readings for mouse TAAR1 (Mus musculus), take a look.
parameter: Ki (nM)

molecule	parameter	observed_value
CN(C[C@H]1COC(N)=N1)c1ccc(Cl)cc1F [Example 100]	Ki	2.7
CCN(C[C@H]1COC(N)=N1)c1cccc(C)c1 [Example 65]	Ki	1.9
CN(C[C@@H]1COC(N)=N1)c1ccc(Cl)cc1 [Example 125]	Ki	2.3
CCN(C[C@H]1COC(N)=N1)c1cccc(-c2cnco2)c1 [Example 106]	Ki	4.1
CCN(C[C@H]1COC(N)=N1)c1ccc(C(F)(F)F)cc1 [Example 133]	Ki	4.2
CN(C[C@H]1COC(N)=N1)c1ccccc1 [Example 30]	Ki	16.3
CCN(C[C@@H]1COC(N)=N1)c1ccc(Cl)c(OC)c1 [Example 141]	Ki	3.4
CCN(C[C@H]1COC(N)=N1)c1ccc(Cl)c(Cl)c1 [Example 33]	Ki	2.2
CCN(C[C@H]1COC(N)=N1)c1ccccc1F [Example 107]	Ki	3.9
CC(C)N(C[C@@H]1COC(N)=N1)c1ccc(Cl)cc1 [Example 129]	Ki	8.8
CN(C[C@@H]1COC(N)=N1)c1ccc2ccccc2c1 [Example 162]	Ki	7.7
CCN(C[C@H]1COC(N)=N1)c1ccc(F)cc1F [Example 145]	Ki	8.2
CCN(C[C@H]1COC(N)=N1)c1cc(F)cc(C(F)(F)F)c1 [Example 109]	Ki	2.5
CN(C[C@H]1COC(N)=N1)c1cc(Cl)cc(Cl)c1 [Example 160]	Ki	1.3
CCN(C[C@H]1COC(N)=N1)c1ccccc1Cl [Example 111]	Ki	6
NC1=N[C@@H](CNc2ccc(F)cc2F)CO1 [Example 152]	Ki	3.2
CN(C[C@H]1COC(N)=N1)c1ccc(F)cc1F [Example 146]	Ki	3.1
CN(C[C@@H]1COC(N)=N1)c1ccc(Cl)c(Cl)c1 [Example 157]	Ki	1.7
NC1=N[C@@H](CNc2cccc(Cl)n2)CO1 [Example 135]	Ki	8.7
NC1=N[C@@H](CNc2ccc(C(F)(F)F)cc2)CO1 [Example 132]	Ki	4.7
COc1cc(N(C)C[C@@H]2COC(N)=N2)ccc1F [Example 138]	Ki	4.4
COc1cc(N(C)C[C@H]2COC(N)=N2)ccc1F [Example 40]	Ki	1.1
CN(C[C@H]1COC(N)=N1)c1ccc(Br)cc1 [Example 31]	Ki	1.3
COc1cc(N(C)C[C@H]2COC(N)=N2)ccc1Cl [Example 27]	Ki	7.3
COc1cc(N(Cc2ccccc2)C[C@H]2COC(N)=N2)ccc1F [Example 42]	Ki	26.4

Value source: patent US7902238B2
